Assay: Drug level in Sprague-Dawley rat plasma at 10 mg/kg, iv after 1 hr
Type: ADME, organism-based
property-label: concentration at 1 h (ng/g)
Write the value in ng/g as a bare number.

QUERY: Consider the compound shown here: O=C(NCCO)c1cccc2c1CCN2c1cc(Cc2cc(F)cc(C(F)(F)F)c2)ncn1 What is its recorded concentration at 1 h?
RESULT: 2590

The measured values listed here are drawn from ChEMBL document CHEMBL4699648.
